# Tested on: HCI13 (cells of an ER-positive luminal breast cancer xenograft)
# experiment.notes: cell viability (% of vehicle); higher = less cytotoxic;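 note: PDX cells carrying CMV promoter-driven luciferase, viability read as total photon flux per second by IVIS imaging following D-luciferin, vehicle control 0.1% DMSO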
# assay.context: 10 µM; 72 h
Note to self: use 1 (yes) only for cell viability readings below 90; a reading exactly at 90 still gets 0 (no).

{"columns": ["molecule", "target.or.test.system", "class.assignment"],
 "data": [
  ["C=C(c1ccc(C(=O)O)cc1)c1cc2c(cc1C)C(C)(C)CCC2(C)C", "HCI13", "1 (yes)"],
  ["CCn1cc(C(=O)O)c(=O)c2cc(F)c(N3CCNCC3)nc21", "HCI13", "0 (no)"],
  ["O=C(O)c1cc(O)c(O)c(O)c1", "HCI13", "0 (no)"],
  ["COc1ccc(C2CNC(=O)C2)cc1OC1CCCC1 (configuration not stated)", "HCI13", "0 (no)"],
  ["C=C1C(=CC=C2CCCC3(C)C2CCC3C(C)C=CC(C)C(C)C)CC(O)CC1O (configuration not stated)", "HCI13", "1 (yes)"],
  ["C=CC(=O)N1CCC(Oc2cc3c(Nc4ccc(Cl)c(Cl)c4F)ncnc3cc2OC)CC1", "HCI13", "1 (yes)"],
  ["c1cc(CN2CCCNCCNCCCNCC2)ccc1CN1CCCNCCNCCCNCC1", "HCI13", "1 (yes)"],
  ["CCCCCCCCc1ccc(CCC(N)(CO)CO)cc1.Cl", "HCI13", "1 (yes)"],
  ["CN1CCN(c2ccc(C(=O)/N=c3\\[nH][nH]c4ccc(Cc5cc(F)cc(F)c5)cc34)c(NC3CCOCC3)c2)CC1", "HCI13", "1 (yes)"],
  ["CC(C)c1nc(CN(C)C(=O)NC(C(=O)NC(Cc2ccccc2)CC(O)C(Cc2ccccc2)NC(=O)OCc2cncs2)C(C)C)cs1 (configuration not stated)", "HCI13", "1 (yes)"],
  ["CCOC(=O)c1ccc(C#Cc2ccc3c(c2)C(C)(C)CCS3)nc1", "HCI13", "0 (no)"],
  ["CN(C)C(CCOc1cccc2ccccc12)c1ccccc1.Cl (configuration not stated) [Dapoxetine HCl]", "HCI13", "0 (no)"],
  ["Cc1c(N(C)C)c(=O)n(-c2ccccc2)n1C", "HCI13", "1 (yes)"],
  ["Oc1ccc(OC2CCCCO2)cc1 (configuration not stated)", "HCI13", "1 (yes)"],
  ["CCN(CC)CC#CCOC(=O)C(O)(c1ccccc1)C1CCCCC1 (configuration not stated)", "HCI13", "0 (no)"]
]}

====

# Tested on: HCI11 (cells of an ER-positive luminal breast cancer xenograft)
# experiment.notes: cell viability (% of vehicle); higher = less cytotoxic
# assay.context: 10 µM; 72 h
Quick reference: cell viability of the listed items.

{"columns": ["compound", "target.or.test.system", "cell viability"],
 "data": [
  ["COc1ccc2[n-]c(S(=O)Cc3ncc(C)c(OC)c3C)nc2c1.COc1ccc2[n-]c(S(=O)Cc3ncc(C)c(OC)c3C)nc2c1.[Mg+2] (stereo not drawn) [Esomeprazole Magnesium]", "HCI11", 92.6],
  ["Cn1cnc([N+](=O)[O-])c1Sc1ncnc2nc[nH]c12 [Azathioprine]", "HCI11", 87],
  ["O=C(C1CCCCC1)N1CC(=O)N2CCc3ccccc3C2C1 (stereo not drawn) [Praziquantel]", "HCI11", 93.1],
  ["CS(=O)(=O)CCNCc1ccc(-c2ccc3ncnc(Nc4ccc(OCc5cccc(F)c5)c(Cl)c4)c3c2)o1.Cc1ccc(S(=O)(=O)O)cc1.Cc1ccc(S(=O)(=O)O)cc1 [Lapatinib Ditosylate]", "HCI11", 67.8],
  ["C[N+](C)(C)CC(=O)[O-] [Betaine]", "HCI11", 90.7],
  ["CN1C(C(=O)Nc2ccccn2)=C(O)c2sc(Cl)cc2S1(=O)=O [Lornoxicam]", "HCI11", 85.6],
  ["CC1OC(OC2C(CO)OC(OC3C(CO)OC(O)C(O)C3O)C(O)C2O)C(O)C(O)C1NC1C=C(CO)C(O)C(O)C1O (stereo not drawn) [Acarbose]", "HCI11", 88.2],
  ["COc1ccccc1OCC(O)CN1CCN(CC(=O)Nc2c(C)cccc2C)CC1 (stereo not drawn) [Ranolazine]", "HCI11", 103]
]}

====

# System: HCI09 (cells of a triple-negative luminal androgen receptor type breast cancer xenograft)
# experiment.notes: cell viability (% of vehicle); higher = less cytotoxic
# assay.context: 10 µM; 72 h

{"columns": ["compound", "cell viability"],
 "data": [
  ["C=CCNC1=C2CC(C)CC(OC)C(O)C(C)C=C(C)C(OC(N)=O)C(OC)C=CC=C(C)C(=O)NC(=CC1=O)C2=O (centres undefined)", 26.7],
  ["CC(=O)OCC(=O)[C@@]12OC(C)(C)O[C@@H]1C[C@H]1[C@@H]3C[C@H](F)C4=CC(=O)C=C[C@]4(C)[C@@]3(F)[C@@H](O)C[C@@]12C [Fluocinonide]", 127],
  ["NC1CN(c2c(F)cc3c(=O)c(C(=O)O)cn(C4CC4F)c3c2Cl)CC12CC2.O (centres undefined) [Sitafloxacin Hydrate]", 111],
  ["COc1ccc2cc(CCC(C)=O)ccc2c1 [Nabumetone]", 200],
  ["CC(C(=O)O)c1cccc(Oc2ccccc2)c1 (centres undefined) [Fenoprofen calcium hydrate]", 94.2],
  ["COc1cc(C)c(C=CC(C)=CC=CC(C)=CC(=O)O)c(C)c1C [Acitretin]", 90.9],
  ["C#CC1(O)CCC2C3CCc4cc(O)ccc4C3CCC21C (centres undefined) [Ethinyl Estradiol]", 103],
  ["Nc1nc(F)nc2c1ncn2C1OC(CO)C(O)C1O (centres undefined) [Fludarabine]", 103],
  ["O=C(O)c1ccc2ccccc2c1O.OCc1cc(C(O)CNCCCCCCOCCCCc2ccccc2)ccc1O (centres undefined) [Salmeterol xinafoate]", 57.3],
  ["O=C(O)CSCC(=O)NC1CCSC1=O (centres undefined) [Erdosteine]", 108],
  ["O=C(NS(=O)(=O)c1ccc(Br)s1)c1ccc(Cl)cc1Cl [Tasisulam]", 84.1],
  ["C[C@H]1COc2c(N3CCN(C)CC3)c(F)cc3c(=O)c(C(=O)O)cn1c23 [Levofloxacin]", 88],
  ["Cc1ncc(C[n+]2csc(CCO)c2C)c(N)n1.Cl.[Cl-] [Thiamine HCl (Vitamin B1)]", 103],
  ["CC(C)c1nc(N(C)S(C)(=O)=O)nc(-c2ccc(F)cc2)c1C=CC(O)CC(O)CC(=O)[O-].CC(C)c1nc(N(C)S(C)(=O)=O)nc(-c2ccc(F)cc2)c1C=CC(O)CC(O)CC(=O)[O-].[Ca+2] (centres undefined) [Rosuvastatin Calcium]", 112],
  ["COc1ccccc1OCCNCC(O)COc1cccc2[nH]c3ccccc3c12 (centres undefined) [Carvedilol]", 75.9],
  ["CCc1cccc2c3c([nH]c12)C(CC)(CC(=O)O)OCC3 (centres undefined) [Etodolac]", 98.8],
  ["COc1cc2c(cc1Cc1cccc(Cl)c1F)c(=O)c(C(=O)O)cn2C(CO)C(C)C (centres undefined) [Elvitegravir (GS-9137)]", 41.2],
  ["CC1(C(=O)[O-])CCC2(C)CCC3(C)C(=CC(=O)C4C5(C)CCC(OC(=O)CCC(=O)[O-])C(C)(C)C5CCC43C)C2C1.[Na+].[Na+] (centres undefined) [Carbenoxolone disodium]", 89.2],
  ["CN(C)C(=O)NC1CCC(CCN2CCN(c3cccc(Cl)c3Cl)CC2)CC1 (centres undefined) [Cariprazine]", 43.9],
  ["COc1cc2nccc(Oc3ccc(NC(=O)C4(C(=O)Nc5ccc(F)cc5)CC4)cc3)c2cc1OC", 91.5],
  ["CC1OC(OCC2OC(Oc3c(-c4ccc(O)c(O)c4)oc4cc(O)cc(O)c4c3=O)C(O)C(O)C2O)C(O)C(O)C1O (centres undefined) [Rutin]", 101],
  ["CN1CCN(C2=c3ccccc3=Nc3ccc(Cl)cc3N2)CC1 [Clozapine]", 101],
  ["COc1ccc(C2Sc3ccccc3N(CCN(C)C)C(=O)C2OC(C)=O)cc1.Cl (centres undefined) [Diltiazem HCl]", 85.4],
  ["CCCNC(=O)NS(=O)(=O)c1ccc(Cl)cc1 [Chlorpropamide]", 73.9],
  ["CCc1cc(C(N)=S)ccn1 [Ethionamide]", 100],
  ["Nc1ccc(C(=O)[O-])c(O)c1.O.O.[Na+] [Sodium 4-Aminosalicylate]", 108],
  ["CCOC(=O)C(CCc1ccccc1)NC1CSC(c2cccs2)CN(CC(=O)O)C1=O.Cl (centres undefined) [Temocapril HCl]", 106],
  ["COC(=O)NC(C(=O)N1CCCC1c1ncc(-c2ccc(-c3ccc(-c4cnc(C5CCCN5C(=O)C(NC(=O)OC)C(C)C)[nH]4)cc3)cc2)[nH]1)C(C)C (centres undefined)", 42.7],
  ["Nc1ccn(C2CSC(CO)O2)c(=O)n1 (centres undefined) [Lamivudine]", 94.9]
]}

====

# Test system: WHIM2 (cells of a triple-negative basal-like breast cancer xenograft)
# experiment.notes: cell viability (% of vehicle); higher = less cytotoxic
# assay.context: 10 µM; 72 h
Quick reference: cell viability of the listed items.

{"columns": ["compound", "cell viability"],
 "data": [
  ["Cc1cnc(Nc2ccc(OCCN3CCCC3)cc2)nc1Nc1cccc(S(=O)(=O)NC(C)(C)C)c1", 43.8],
  ["CC(=O)OCC(CCn1cnc2cnc(N)nc21)COC(C)=O [Famciclovir]", 106],
  ["NCCCCCC(=O)O [(6-)ε-Aminocaproic acid]", 101],
  ["Oc1ccc(C=Cc2cc(O)cc(O)c2)cc1 [Resveratrol]", 191],
  ["CCCS(=O)(=O)Nc1ccc(F)c(C(=O)c2c[nH]c3ncc(-c4ccc(Cl)cc4)cc23)c1F [Vemurafenib (PLX4032, RG7204)]", 102],
  ["Nc1cccc2c1C(=O)N(C1CCC(=O)NC1=O)C2=O (stereo not drawn) [Pomalidomide (CC-4047)]", 73.9],
  ["CC(C)OC(=O)C(C)(C)Oc1ccc(C(=O)c2ccc(Cl)cc2)cc1 [Fenofibrate]", 109],
  ["CC1=C(C(=O)O)N2C(=O)C(NC(=O)C(N)c3ccccc3)C2SC1 (stereo not drawn) [Cephalexin]", 118]
]}
